pKd: recorded values
target: T1, Recombinant human IL-1beta (rhIL-1b) (human, UniProt P01584 117-269); experiment: Biacore, Low Resolution screen
T1 construct: R&D Systems Cat. No. 201-LB/CF; also called IL-1β; human IL-1β
pKd: −log10 of the molar value.
Parameter: pKd

[
  {
    "Binder": "5.36.1 (antibody, human IgG4, V domains shown, kappa) VH: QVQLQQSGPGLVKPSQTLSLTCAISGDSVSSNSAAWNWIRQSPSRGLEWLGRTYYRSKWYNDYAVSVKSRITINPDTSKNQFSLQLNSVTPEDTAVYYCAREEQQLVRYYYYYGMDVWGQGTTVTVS VL: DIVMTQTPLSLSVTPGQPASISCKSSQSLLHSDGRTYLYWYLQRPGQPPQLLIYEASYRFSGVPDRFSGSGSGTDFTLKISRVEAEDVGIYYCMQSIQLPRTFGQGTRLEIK",
    "Parameter": "pKd",
    "Numeric value": 9.15
  },
  {
    "Binder": "9.54.1 (antibody, human IgG4, V domains shown, lambda; also called 9.54.2) VH: QVQLVESGGGVVQPGRSLRLSCAASGFTFSSFGMHWVRQAPGKGLEWVAVIWYDGSNKYYADSVKGRFTISRDNSKNTLYLQMNSLRAEDTAVYYCARDPNYDILTGYYYYGMDVWGQGTTVTVS VL: SSELTQDPAVSVALGQTVRITCQGDILRTYYASWYQQKPGQAPVLVIYGKNDRPSGIPDRFSGSSSGNTASLTITGAQAEDEADYYCDSRDNTVTHLVFGGGTKLTVL",
    "Parameter": "pKd",
    "Numeric value": 9.43
  },
  {
    "Binder": "8.18.1 (antibody, human IgG4, V domains shown, lambda; also called mAb 8.18.1) VH: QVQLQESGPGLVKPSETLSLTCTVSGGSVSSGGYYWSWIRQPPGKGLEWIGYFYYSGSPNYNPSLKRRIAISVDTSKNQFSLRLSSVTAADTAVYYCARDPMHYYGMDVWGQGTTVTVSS VL: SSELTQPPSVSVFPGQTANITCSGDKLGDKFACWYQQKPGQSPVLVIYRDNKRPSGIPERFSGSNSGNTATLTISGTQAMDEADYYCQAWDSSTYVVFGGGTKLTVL",
    "Parameter": "pKd",
    "Numeric value": 9.20
  },
  {
    "Binder": "6.33.1 (antibody, human IgG4, V domains shown, lambda; also called mAb 6.33.1) VH: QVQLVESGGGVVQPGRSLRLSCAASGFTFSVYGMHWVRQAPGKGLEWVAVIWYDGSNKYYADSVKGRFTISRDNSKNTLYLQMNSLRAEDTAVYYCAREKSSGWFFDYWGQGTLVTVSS VL: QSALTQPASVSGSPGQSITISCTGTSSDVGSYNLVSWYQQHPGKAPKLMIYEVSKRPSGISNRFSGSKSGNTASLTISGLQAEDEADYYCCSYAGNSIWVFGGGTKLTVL",
    "Parameter": "pKd",
    "Numeric value": 9.49
  },
  {
    "Binder": "9.11.1 (antibody, human IgG4, V domains shown, lambda; also called 9.11.3) VH: QVQLVESGGGVVQPGRSLRLSCAASGFTFSVYGMHWVRQAPGKGLEWVAVIWYDGNNKYYVDSVKGRFTISRDNSKNTLYLQLNSLRAEDTAVYYCARERSSSWYFDYWGQGTLVTVSS VL: QSALTQPASVSGSSGQSITISCTGTSSDVGSYNLVSWYQQHPGKAPKLMIYEVSKRPSGVSNRFSGSKSGNTASLTISGLQAEDEADYYCCSYAGNSNWVFGGGTKLTVL",
    "Parameter": "pKd",
    "Numeric value": 9.54
  }
]

Origin of the recorded values: patent US20070065439A1
